Please respond with reported Ki for every item in the list.
Report the figure in µM without appending any unit label.

**Q:** Give the reported Ki for c1ccc(C(c2ccccc2)N2CCN(CCCCc3cc(-c4cccs4)no3)CC2)cc1 (system: D(3) dopamine receptor (Homo sapiens, UniProt P35462)).
Sequence (P35462 whole entry): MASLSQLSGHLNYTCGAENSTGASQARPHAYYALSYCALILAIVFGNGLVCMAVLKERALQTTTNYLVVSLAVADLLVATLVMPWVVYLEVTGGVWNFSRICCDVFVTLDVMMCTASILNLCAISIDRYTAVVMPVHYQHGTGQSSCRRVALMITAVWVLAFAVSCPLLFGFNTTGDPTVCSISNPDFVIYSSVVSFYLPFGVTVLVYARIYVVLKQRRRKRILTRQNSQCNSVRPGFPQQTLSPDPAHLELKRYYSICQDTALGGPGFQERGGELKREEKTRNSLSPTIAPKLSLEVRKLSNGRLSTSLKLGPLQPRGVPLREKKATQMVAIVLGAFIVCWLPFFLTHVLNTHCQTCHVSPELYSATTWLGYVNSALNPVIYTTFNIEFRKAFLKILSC
**A:** 0.052

**Q:** Give the reported Ki for COc1ccc(-c2cc(CCCCN3CCN(c4ccccc4)CC3)on2)c(OC)c1 (system: D(3) dopamine receptor (Homo sapiens, UniProt P35462)).
**A:** 0.016

**Q:** Give the reported Ki for c1ccc(-c2cc(CCCCN3CCN(c4ccccc4)CC3)on2)cc1 (system: D(3) dopamine receptor (Homo sapiens, UniProt P35462)).
**A:** 0.018

**Q:** Give the reported Ki for COc1ccc(-c2cc(CCCCN3CCN(C(c4ccccc4)c4ccccc4)CC3)on2)cc1OC (system: D(3) dopamine receptor (Homo sapiens, UniProt P35462)).
**A:** 0.02

**Q:** Give the reported Ki for C(=C\c1cc(CCCCN2CCN(C(c3ccccc3)c3ccccc3)CC2)on1)/c1ccccc1 (system: D(3) dopamine receptor (Homo sapiens, UniProt P35462)).
**A:** 0.04
